# Mean maximum fluorescence intensity (Top MFI) annotations
Biological target: T1, human Claudin 18.2 (hCLDN18.2) (human, UniProt P56856-2 1-261)
T1 construct: whole, on cells; also called CLDN18A2; claudin 18 splice variant 2
Experiment: FACS, HEK293-hCLDN18.2 cells
Entry rule: numbers only, all in MFI.

>>> observed("ch-251H11 (antibody, V domains shown, also called chimeric antibody of clone 251H11) VH: QVQLKQSGAELVRPGASVKLSCKTSGYTFTTFWIHWIKQRSGQGLEWIAKIYPGTGYTYYNEKFKGKATLTADKSSSAAYMQLSSLKSEDSAVYFCAREGYGKGNAVDFWGQGSSVTVSS VL: DIVMTQSPSSLTVTAGEKVTMSCKSSQSLFNSGNQKNYLTWYQQKPGQPPKLLIYWASTRESGVPDRFTGSGSGTDFTLTIDSVQAEDLAVYYCQNDYTYPSTFGGGTNLEIK")
10800
>>> observed("ch-241F7 (antibody, V domains shown, also called chimeric antibody of clone 241F7) VH: EVQLQQSGPELEKPGASVKISCKASGYSFTAYNMNWVRQRNGKSLEWIGNIDPYYGGTNYNQKFKGKATLTVDKSSSTAYMQLKSLTSEDSAVYFCATVYYGNSLIYWGQGTLVTVSA VL: DIVMTQSPSSLTVTAGEKVTMSCKSSQSLLNSGNQKNYLTWYQQKPGQPPKLLIYWASTRESGVPDRFTGTGSGTDFTLTISSVQAEDLAVYYCQNNYFYPLTFGAGTQLELK")
12200

Continue with the binder presented below.
q: Look up Mean maximum fluorescence intensity (Top MFI): ch-48H1 (antibody, V domains shown, also called chimeric antibody of clone 48H1) VH: QVQLQQPGAELVKPGTSVKLSCKASGYIFTNYWTHWMKQRPGQGLEWIGMIHPNSGSSNYNEKFKSKATLTVDRSSSTVYMQLRRLTSEDSAVYYCTRIHYGNSMDYWGQGTSVTVSS VL: DIVMTQSPSSLTVTAGEKVTMSCKSSQSLFNSGNQKNYLTWYQQKPGQPPKLLIYWASTWESGVPDRFTGSGSGTDFTLTISSVQAEDLAVYYCQNAYSYPFTFGSGTKLEIK
a: 9480

// data source = patent US20220411492A1
